# Study target: T1, human GIP receptor (human) (UniProt P48546)
# T1 sequence (looked up): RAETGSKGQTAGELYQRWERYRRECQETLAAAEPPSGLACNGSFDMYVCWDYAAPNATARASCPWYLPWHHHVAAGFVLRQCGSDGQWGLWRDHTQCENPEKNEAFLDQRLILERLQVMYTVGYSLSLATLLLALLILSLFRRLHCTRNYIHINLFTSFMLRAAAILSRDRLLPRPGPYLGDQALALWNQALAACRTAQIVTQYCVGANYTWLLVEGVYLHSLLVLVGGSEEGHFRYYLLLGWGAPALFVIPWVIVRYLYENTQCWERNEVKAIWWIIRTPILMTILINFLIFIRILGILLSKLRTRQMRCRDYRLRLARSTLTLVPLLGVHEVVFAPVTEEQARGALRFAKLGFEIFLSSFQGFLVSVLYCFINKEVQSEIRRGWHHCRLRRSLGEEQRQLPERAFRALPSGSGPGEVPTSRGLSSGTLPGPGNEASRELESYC
# Test name: cell-based or functional assay
Starred links: 1 amine or outer side, 2 acyl side, 3 side chain; linkers in the order of their positions; H or OH if unused. Non-standard residues stand in square brackets, D forms with d. Groups on a side chain read outwards from the residue. No end group written: not given here. *: point of attachment. C18 diacid = O=C(O)CCCCCCCCCCCCCCCCC(=O)*; γGlu = O=C(O)[C@H](CCC(=O)[*:2])N[*:1]; αMeL = CC(C)C[C@](C)(N)C(=O)O; Dap = NC[C@H](N)C(=O)O; AEEA = NCCOCCOCC(=O)O; Aib = CC(C)(N)C(=O)O
// values below are reported cAMP Rel EC50, nM (in the presence of 1% HSA)
Report as a plain number; the unit nM is understood.

Use the examples below as a reference point.
| Binder | Value reported |
| --- | --- |
| YXQGTFTSDFSKXLDKKAQXAFIEYLLEGGPSSGAPPPSGS (synthetic construct; SITE 2: note = 2-Aminoisobutyric Acid; SITE 13: note = alpha-methyl-leucine; SITE 17: note = Lysine is chemically modified through conjugation of the epsilon-amino group of the Lysine side chain with (2-[2-(2-Amino-ethoxy)-ethoxy]-acetyl)2-(gamma-Glu)-CO-(CH2 )16-CO2H; SITE 20:) [Example 142] | 14.1 |
| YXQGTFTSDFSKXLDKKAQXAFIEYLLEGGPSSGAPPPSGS (synthetic construct; SITE 2: note = 2-Aminoisobutyric Acid; SITE 13: note = alpha-methyl-leucine; SITE 17: note = Lysine is chemically modified through conjugation of the epsilon-amino group of the Lysine side chain with (2-[2-(2-Amino-ethoxy)-ethoxy]-acetyl)-(gamma-Glu)-CO-(CH2) 16-CO2H; SITE 20: n) [Example 141] | 62.1 |
| YXQGTFTSDFSXXLDKKAQXAFIEYLLEAGPSSGEPPPSEG (synthetic construct; SITE 2: note = 2-Aminoisobutyric Acid; SITE 12: note = L-ornithine; SITE 13: note = alpha-methyl-leucine; SITE 17: note = Lysine is chemically modified through conjugation of the epsilon-amino group of the Lysine side chain with (2-[2-(2-Amino-ethoxy)-ethoxy]-acetyl)2-(gamma-Glu)) [Example 116] | 40.4 |
| YXQGTFTSDFSXXLDKKAQXAFIEYLLEAGPSSGAPPPSEG (not fully specified; synthetic construct; SITE 2: note = 2-Aminoisobutyric Acid; SITE 12: note = L-ornithine; SITE 13: note = alpha-methyl-leucine; SITE 17: note = Lysine is chemically modified through conjugation of the epsilon-amino group of the Lysine side chain with (2-[2-(2-Amino-ethoxy)-ethoxy]-acetyl)2-(gamma-Glu)) [Example 72] | 56.7 |
| YXQGTFTSDFSXXLDKKAQXAFIEYLLEGGPSSGEPPPSEG (synthetic construct; SITE 2: note = 2-Aminoisobutyric Acid; SITE 12: note = L-ornithine; SITE 13: note = alpha-methyl-leucine; SITE 17: note = Lysine is chemically modified through conjugation of the epsilon-amino group of the Lysine side chain with (2-[2-(2-Amino-ethoxy)-ethoxy]-acetyl)-(gamma-Glu)) [Example 59] | 166 |

Req: For the binder YXQGTFTSDFSKXLDKKAQXAFIEYLLEXGPSSGAPPPSEG (synthetic construct; SITE 2: note = 2-Aminoisobutyric Acid; SITE 13: note = alpha-methyl-leucine; SITE 17: note = Lysine is chemically modified through conjugation of the epsilon-amino group of the Lysine side chain with (2-[2-(2-Amino-ethoxy)-ethoxy]-acetyl)-(gamma-Glu)-CO-(CH2) 16-CO2H; SITE 20: n) [Example 57] , give its reported cAMP Rel EC50, nM (in the presence of 1% HSA).
Resp: 3.78

Req: For the binder Y[Aib]QGTFTSDFS[Dap][αMeL]LDKK([AEEA-γGlu-C18 diacid])AQ[Aib]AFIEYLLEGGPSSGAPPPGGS-NH2 (ends and bridges not checked) [Example 68] , give its reported cAMP Rel EC50, nM (in the presence of 1% HSA).
Resp: 85.1

Req: For the binder YXQGTFTSDFSXXLDKKAQXAFIEYLLEAGPSSGAPPPSGE (synthetic construct; SITE 2: note = 2-Aminoisobutyric Acid; SITE 12: note = L-ornithine; SITE 13: note = alpha-methyl-leucine; SITE 17: note = Lysine is chemically modified through conjugation of the epsilon-amino group of the Lysine side chain with (2-[2-(2-Amino-ethoxy)-ethoxy]-acetyl)2-(gamma-Glu)) [Example 128] , give its reported cAMP Rel EC50, nM (in the presence of 1% HSA).
Resp: 24.3

Req: For the binder YXQGTFTSDFSXXLDKKAQXAFIEYLLEGGESSGAPPPSGS (synthetic construct; SITE 2: note = 2-Aminoisobutyric Acid; SITE 12: note = L-ornithine; SITE 13: note = alpha-methyl-leucine; SITE 17: note = Lysine is chemically modified through conjugation of the epsilon-amino group of the Lysine side chain with (2-[2-(2-Amino-ethoxy)-ethoxy]-acetyl)-(gamma-Glu)) [Example 145] , give its reported cAMP Rel EC50, nM (in the presence of 1% HSA).
Resp: 108
